Attribution: ChEMBL document CHEMBL4014308

Assay: Cytotoxicity against human DU145 cells assessed as cell viability at 20 uM after 48 hrs by MTS assay relative to control
Format: cell-based, DU-145
Details: read-out: Activity

chemical.string	viability at 48 h, 20 µM
Cl.Cl.Cl.Cl.Cl.Cl.Cl.NCCCC[C@H](N)C(=O)N(CCCCCCCCCCCCO[C@@H]1[C@@H](O[C@H]2O[C@H](CO)[C@@H](O)[C@H](N)[C@H]2O)[C@H](N)C[C@H](N)[C@H]1O[C@H]1O[C@H](CN)[C@@H](O)C[C@H]1N)Cc1c2ccccc2c(Cl)c2ccccc12	> 50%

---

Test system: Pseudomonas aeruginosa
Assay: Antibacterial activity against multidrug/extremely drug-resistant/colistin-susceptible Pseudomonas aeruginosa isolate 100036 after 18 hrs by microtiter dilution assay
Type: functional
Settings: isolate 100036, 18 h
Measured MIC accompanies every entry in the list below.
metric.name: MIC (mg/L)

molecule	modifier	quantitative.result
O=C(O)c1cn(C2CC2)c2cc(N3CCNCC3)c(F)cc2c1=O [CIPROFLOXACIN]	=	64
CC(C)(O/N=C(\C(=O)N[C@@H]1C(=O)N2C(C(=O)[O-])=C(C[n+]3ccccc3)CS[C@H]12)c1csc(N)n1)C(=O)O [CEFTAZIDIME]	=	8
CC[C@H]1OC(=O)[C@H](C)[C@@H](O[C@H]2C[C@@](C)(OC)[C@@H](O)[C@H](C)O2)[C@H](C)[C@@H](O[C@@H]2O[C@H](C)C[C@H](N(C)C)[C@H]2O)[C@](C)(O)C[C@@H](C)C(=O)[C@H](C)[C@@H](O)[C@]1(C)O [ERYTHROMYCIN]	=	256
NC[C@H]1O[C@H](O[C@H]2[C@H](O)[C@@H](O[C@H]3O[C@H](CO)[C@@H](O)[C@H](N)[C@H]3O)[C@H](N)C[C@@H]2N)[C@H](N)C[C@@H]1O [TOBRAMYCIN]	=	64
CN(C)c1ccc(O)c2c1C[C@H]1C[C@H]3[C@H](N(C)C)C(O)=C(C(N)=O)C(=O)[C@@]3(O)C(O)=C1C2=O [MINOCYCLINE]	=	32
Cl.Cl.Cl.Cl.Cl.Cl.Cl.NCCCC[C@H](N)C(=O)N(CCCCCCCCOC1[C@@H](O[C@H]2O[C@H](CO)[C@@H](O)[C@H](N)[C@H]2O)[C@H](N)C[C@H](N)[C@H]1O[C@H]1O[C@H](CN)[C@@H](O)C[C@H]1N)Cc1c2ccccc2c(Cl)c2ccccc12 (single isomer, unassigned)	=	512
Cl.Cl.Cl.Cl.Cl.Cl.Cl.NCCCC[C@H](N)C(=O)N(CCCCCCCCCCCCO[C@@H]1[C@@H](O[C@H]2O[C@H](CO)[C@@H](O)[C@H](N)[C@H]2O)[C@H](N)C[C@H](N)[C@H]1O[C@H]1O[C@H](CN)[C@@H](O)C[C@H]1N)Cc1c2ccccc2c(Cl)c2ccccc12	=	32
Cl.Cl.Cl.Cl.Cl.Cl.Cl.NCCCC[C@H](N)C(=O)N(CCCCO[C@@H]1[C@@H](O[C@H]2O[C@H](CO)[C@@H](O)[C@H](N)[C@H]2O)[C@H](N)C[C@H](N)[C@H]1O[C@H]1O[C@H](CN)[C@@H](O)C[C@H]1N)Cc1c2ccccc2c(Cl)c2ccccc12	>	512
CO[C@H]1/C=C/O[C@@]2(C)Oc3c(C)c(O)c4c(O)c(c(/C=N/N5CCN(C)CC5)c(O)c4c3C2=O)NC(=O)/C(C)=C\C=C\[C@H](C)[C@H](O)[C@@H](C)[C@@H](O)[C@@H](C)[C@H](OC(C)=O)[C@@H]1C [RIFAMPIN]	=	16
COc1c(N2C[C@@H]3CCCN[C@@H]3C2)c(F)cc2c(=O)c(C(=O)O)cn(C3CC3)c12 [MOXIFLOXACIN]	=	128
O=C(N[C@H](CO)[C@H](O)c1ccc([N+](=O)[O-])cc1)C(Cl)Cl [CHLORAMPHENICOL]	>	512
CCCCCCCCCCCCN(Cc1c2ccccc2c(Cl)c2ccccc12)C(=O)[C@@H](N)CCCCN.O=C(O)C(F)(F)F.O=C(O)C(F)(F)F	=	256
COc1cc(Cc2cnc(N)nc2N)cc(OC)c1OC [TRIMETHOPRIM]	=	256
